system: HL-60(TB) leukemia; assay: NCI tumour cell line growth inhibition, 48 h
Class 1.0: TGI at least 40 µM. Class 0.0: TGI below 40 µM.

Please review the entries below; each comes with its answer.
c1ccc2c(c1)-c1ccccc1C2NC1=NCCO1    1.0
COC(=O)c1cccc(NC(=O)c2ccc(NC3=C(Cl)C(=O)N(Cc4ccccc4)C3=O)cc2)c1    0.0

Is TGI at least 40 µM? Consider CC(C)=CCc1cc(/C=C/C(=O)O)cc(CC=C(C)C)c1O
1.0

Entry to check: CCCCCCCCCCCCCCCCCCOc1ccccc1COP(=O)(O)OOCC[N+](C)(C)C
0.0

Entry to check: CC1(C)N([O-])[N+](=O)C1(C)O (stereo not given)
1.0

Entry to check: CN1C2(c3ccccc3)C(C(=O)c3ccccc3)=C(C(=O)c3ccccc3)C1(c1ccccc1)c1c(-c3ccccc3)sc(-c3ccccc3)c12
1.0

Entry to check: CCN(CC)CC(O)c1cc(-c2ccc(Cl)cc2)nc2c(C)c(Cl)ccc12 (stereo not given)
0.0

Entry to check: Nc1nc(N)c2c(n1)CCC(S(=O)(=O)c1ccc3ccccc3c1)C2 (stereo not given)
0.0

====

test system: NCI-H460 lung; experiment: NCI tumour cell line growth inhibition, 48 h
Measured Attribute: TGI

// known answers, use as guide
COCCCNc1c2ccccc2nc2ccccc12    3.55 µM
Fc1ccc(N=C2C=CC(=Nc3ccc(F)cc3)c3ccccc32)cc1    > 100 µM
Cn1c(=S)[nH]c(N)c(Cc2ccccc2)c1=O    > 100 µM
C[C@]12CCc3nn(-c4ccccc4)nc3C1CC[C@@H]1C2CC[C@]2(C)C(=O)CCC12 (stereo partly specified)    > 100 µM
Nc1ccc(C2SCC(=O)N2NS(=O)(=O)c2cccc(C(=O)O)c2)cc1 (stereo unspecified)    > 100 µM

Okay, next one:
Endpoint output: TGI of COc1cc(C(=O)NN=C2c3ccccc3-c3ccccc32)cc(OC)c1OC . Value?
26.6 µM

====

// reported TGI for each item listed
test system: K-562 leukemia; assay: NCI tumour cell line growth inhibition, 48 h

// known answers, use as guide
N=c1oc2cc(O)ccc2cc1C(=O)Nc1cccc2ccccc12    > 42.7 µM
Cc1cc(C)c(/C=N/NS(=O)(=O)c2ccccc2)c(C)c1    > 100 µM
CCOC(=O)CC1Nc2ccccc2C12CCc1c([nH]c3ccccc13)C2C(=O)OCC (stereo not given)    > 100 µM

Endpoint output: TGI of O=C(CC(=O)N1N=C(N(c2ccccc2)c2ccccc2)CC1c1ccccc1)Nc1cccc(Cl)c1 (stereo not given) . Value?
> 100 µM

Entry to check: O=C1OC(c2ccccc2Br)=N/C1=C/c1ccccc1
> 100 µM

Entry to check: C[C@@H](c1ccccc1)N1CO[C@@]2(C#Cc3ccc4c(c3)OCO4)CCC[C@@H]12
96.2 µM

Entry to check: Cc1[nH]nc(C(=O)N/N=C/c2ccccc2Cl)c1N=NN(C)C
> 100 µM

Entry to check: O=C(CC1(O)C(=O)Nc2ccccc21)c1ccccc1O (stereo not given)
> 100 µM

Entry to check: CC(=O)N[C@@H](Cc1ccc(OP(=O)(O)O)cc1)C(=O)N[C@H]1CCC(=O)N2CCC[C@@H](C(=O)NC3CCc4ccccc43)N2C1=O (stereo not given in full)
> 25 µM

Entry to check: COc1cc(C2CC(c3cccc(Nc4ccnc5cc(Cl)ccc45)c3)=NN2c2ccccc2)cc(OC)c1OC (stereo not given)
> 100 µM
